# Experimental target: SLC35G3 (Homo sapiens, UniProt Q8N808)
# Sequence (Q8N808 whole entry): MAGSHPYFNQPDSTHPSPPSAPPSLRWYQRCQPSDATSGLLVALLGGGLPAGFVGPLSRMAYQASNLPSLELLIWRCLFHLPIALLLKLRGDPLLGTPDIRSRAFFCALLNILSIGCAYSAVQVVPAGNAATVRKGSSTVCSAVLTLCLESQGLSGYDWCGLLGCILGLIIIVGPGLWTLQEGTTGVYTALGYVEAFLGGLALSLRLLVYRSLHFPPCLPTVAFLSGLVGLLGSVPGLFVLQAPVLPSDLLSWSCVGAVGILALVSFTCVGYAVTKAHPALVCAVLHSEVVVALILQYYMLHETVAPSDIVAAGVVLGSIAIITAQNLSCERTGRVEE
# Run description: Uptake ratio screen, SLC35G3-overexpressing HEK293 over empty vector cells
# Type: cell-based
# Parameters: by amplifying the entire gene-of-interest within the HEK293 genome via a long-range PCR
# Measurement context: 2.5 μM substrate, 2 min, HEK293
Readout type: Uptake data for SLC35G3, mean value (fold-increase over empty vector control)
Number only, no unit.

These recorded examples may help you get a feel for the data.
                                   molecule  quantitative_readout
0  CN(C)CCOC(C)(c1ccccc1)c1ccccn1 (centres unmarked)                  1.10
1     CN1CCN(C2=Nc3cc(Cl)ccc3Nc3ccccc32)CC1                  1.44
2                     NC1Cc2cc3c(cc2C1)OCO3                  1.71
3  C[N+]1(CC2CC2)CC[C@]23c4c5ccc(O)c4O[C@H]2C(=O)CC[C@@]3(O)[C@H]1C5 (some centres unmarked) [Methylnaltrexon]                  1.36

Next item in the queue.
Uptake data for SLC35G3, mean value (fold-increase over empty vector control) reading for CC(Cc1ccc(O)cc1)NCC(O)c1cc(O)cc(O)c1 (centres unmarked) : 1.19

###

Below: a set of entries, each annotated with reported Uptake data for SLC35G3, mean value (fold-increase over empty vector control).
# Experimental target: SLC35G3 (Homo sapiens, UniProt Q8N808)
# Run description: Uptake ratio screen, SLC35G3-overexpressing HEK293 over empty vector cells
# Assay type: cell-based
# Design: by amplifying the entire gene-of-interest within the HEK293 genome via a long-range PCR
# Measurement context: 2.5 μM substrate, 2 min, HEK293
Number only, no unit.

These recorded examples may help you get a feel for the data.
>>> df
                                   compound                     experimental_target  quantitative_readout
0  COc1ccc(OC)c(C(O)CNC(=O)CN)c1 (stereo not drawn)  SLC35G3 (Homo sapiens, UniProt Q8N808)                  1.33
1  CC(CCc1ccc(O)cc1)NCCc1ccc(O)c(O)c1 (stereo not drawn)  SLC35G3 (Homo sapiens, UniProt Q8N808)                  1.58
2  N[C@@H]1CON=C1O [Cycloserine (L-), Cycloserine]  SLC35G3 (Homo sapiens, UniProt Q8N808)                  1.11
3  CC(NC(C)(C)C)C(=O)c1cccc(Cl)c1 (stereo not drawn)  SLC35G3 (Homo sapiens, UniProt Q8N808)                  1.29
4  COc1ccc2c3c1O[C@H]1C(=O)CC[C@@]4(O)[C@@H](C2)N(C)CC[C@]314  SLC35G3 (Homo sapiens, UniProt Q8N808)                  1.86
5      CCOC(=O)[C@]1(c2ccccc2)CCC=C[C@H]1NC  SLC35G3 (Homo sapiens, UniProt Q8N808)                  2.87

Uptake data for SLC35G3, mean value (fold-increase over empty vector control) reading for CCCNC(C)C(=O)Nc1c(C)csc1C(=O)OC (stereo not drawn) : 2.91

Uptake data for SLC35G3, mean value (fold-increase over empty vector control) reading for CNCC1CCCCC1(O)c1cccc(OC)c1 (stereo not drawn) : 1.38

Uptake data for SLC35G3, mean value (fold-increase over empty vector control) reading for COC(=O)C(c1ccccc1)C1CCCCN1 (stereo not drawn) [Methylphenidate] : 1.31

Uptake data for SLC35G3, mean value (fold-increase over empty vector control) reading for CC(C)NCC(O)COc1ccc(COCCOC(C)C)cc1 (stereo not drawn) : 1.24

###

# Experimental target: SLC35G3 (Homo sapiens, UniProt Q8N808)
# Run description: Uptake ratio screen, SLC35G3-overexpressing HEK293 over empty vector cells
# Type: cell-based
# Parameters: by amplifying the entire gene-of-interest within the HEK293 genome via a long-range PCR
# Measurement context: 2.5 μM substrate, 2 min, HEK293
Readout type: Uptake data for SLC35G3, mean value (fold-increase over empty vector control)
Number only, no unit.

These recorded examples may help you get a feel for the data.
>>> df
                              compound  quantitative_readout
0                   C[N+](C)(C)CC(=O)O                  0.84
1  c1cnc2cc3c(cc2n1)[C@@H]1CNC[C@H]3C1                  1.60
2               CNC[C@H](O)c1cccc(O)c1                  1.10

Uptake data for SLC35G3, mean value (fold-increase over empty vector control) reading for C=CCN1C[C@H](C(=O)N(CCCN(C)C)C(=O)NCC)C[C@@H]2c3cccc4[nH]cc(c34)C[C@H]21 : 1.49

Uptake data for SLC35G3, mean value (fold-increase over empty vector control) reading for C#CCN[C@@H]1CCc2ccccc21 : 1.90

Uptake data for SLC35G3, mean value (fold-increase over empty vector control) reading for CCCN(CCC)CCc1cccc2c1CC(=O)N2 : 1.37

###

# Experimental target: SLC35G3 (Homo sapiens)
# Run description: Uptake ratio screen, SLC35G3-overexpressing HEK293 over empty vector cells
# Type: cell-based
# Set-up: by amplifying the entire gene-of-interest within the HEK293 genome via a long-range PCR
# Measurement context: 2.5 μM substrate, 2 min, HEK293
Readout type: Uptake data for SLC35G3, mean value (fold-increase over empty vector control)
Number only, no unit.

Uptake data for SLC35G3, mean value (fold-increase over empty vector control) reading for C[N+](C)(C)[C@@H](Cc1c[nH]c(=S)[nH]1)C(=O)[O-] [Ergothionine] : 1.67

Uptake data for SLC35G3, mean value (fold-increase over empty vector control) reading for O=C1CC2(CCCC2)CC(=O)N1CCCCN1CCN(c2ncccn2)CC1 [Buspirone] : 1.72

Uptake data for SLC35G3, mean value (fold-increase over empty vector control) reading for CC(C)(C)c1ccc(C(O)CCCN2CCC(C(O)(c3ccccc3)c3ccccc3)CC2)cc1 (centres unmarked) [Terfenadine] : 1.28

###

# Experimental target: UniProtKB Q8N808
# Run description: Uptake ratio screen, SLC35G3-overexpressing HEK293 over empty vector cells
# Format: cell-based
# Parameters: by amplifying the entire gene-of-interest within the HEK293 genome via a long-range PCR
# Measurement context: 2.5 μM substrate, 2 min, HEK293
Below: a set of entries, each annotated with reported Uptake data for SLC35G3, mean value (fold-increase over empty vector control).

These recorded examples may help you get a feel for the data.
In [3]: df
Out[3]:
                                   compound  experimental_target  result
0             CN(C)CCCN1c2ccccc2CCc2ccccc21     UniProtKB Q8N808    1.40
1  NC(=O)C1(N2CCCCC2)CCN(CCCC(=O)c2ccc(F)cc2)CC1     UniProtKB Q8N808    1.33

Uptake data for SLC35G3, mean value (fold-increase over empty vector control) reading for CN(C)CCC=C1c2ccccc2CCc2ccccc21 : 1.47

Uptake data for SLC35G3, mean value (fold-increase over empty vector control) reading for C=CCN1CC[C@]23c4c5ccc(O)c4O[C@H]2C(=O)CC[C@@]3(O)[C@H]1C5 : 2.01

Uptake data for SLC35G3, mean value (fold-increase over empty vector control) reading for Cc1cccc(C)c1NC(=O)C1CCCCN1C (centres unmarked) [Mepivacaine] : 2.30

###

# Experimental target: SLC35G3 (Homo sapiens, UniProt Q8N808)
# Run description: Uptake ratio screen, SLC35G3-overexpressing HEK293 over empty vector cells
# Assay type: cell-based
# Design: by amplifying the entire gene-of-interest within the HEK293 genome via a long-range PCR
# Measurement context: 2.5 μM substrate, 2 min, HEK293
Below: a set of entries, each annotated with reported Uptake data for SLC35G3, mean value (fold-increase over empty vector control).
Number only, no unit.

These recorded examples may help you get a feel for the data.
                                   compound                     experimental_target  quantitative_readout
0       Clc1cccc(Cl)c1N=C1NCCN1 [Clonidine]  SLC35G3 (Homo sapiens, UniProt Q8N808)                  1.54
1  C[C@H]1COc2c(N3CCN(C)CC3)c(F)cc3c(=O)c(C(=O)O)cn1c23 [Levofloxacin]  SLC35G3 (Homo sapiens, UniProt Q8N808)                  1.05
2  COc1cc2nc(N3CCN(C(=O)C4CCCO4)CC3)nc(N)c2cc1OC (stereo not drawn) [Terazosin]  SLC35G3 (Homo sapiens, UniProt Q8N808)                  1.49

Considering COCCOC(=O)C1=C(C)NC(C)=C(C(=O)OC(C)C)C1c1cccc([N+](=O)[O-])c1 (stereo not drawn) [Nimodipine] , its Uptake data for SLC35G3, mean value (fold-increase over empty vector control) with SLC35G3 (Homo sapiens, UniProt Q8N808) was recorded as 1.26

Considering CC(CN(C)C)CN1c2ccccc2CCc2ccccc21 (stereo not drawn) [Trimipramine] , its Uptake data for SLC35G3, mean value (fold-increase over empty vector control) with SLC35G3 (Homo sapiens, UniProt Q8N808) was recorded as 1.47

Considering COc1ccc(CN(CCN(C)C)c2ccccn2)cc1 [Pyrilamine] , its Uptake data for SLC35G3, mean value (fold-increase over empty vector control) with SLC35G3 (Homo sapiens, UniProt Q8N808) was recorded as 1.74

Considering CCN(CC)CCNC(=O)c1cc(Cl)c(N)cc1OC [Metoclopramide] , its Uptake data for SLC35G3, mean value (fold-increase over empty vector control) with SLC35G3 (Homo sapiens, UniProt Q8N808) was recorded as 1.44

Considering COCCc1ccc(OCC(O)CNC(C)C)cc1 (stereo not drawn) [Metoprolol] , its Uptake data for SLC35G3, mean value (fold-increase over empty vector control) with SLC35G3 (Homo sapiens, UniProt Q8N808) was recorded as 1.52

Data provenance: paper PMC11406361
